Molecular target: Na^+ -dependent bile acid transport system (Oryctolagus cuniculus, UniProt Q28727)
Construct: Preparation of brush-border membrane vesicles from the ileum of rabbits; from tissue; host or cells: brush-border membrane vesicles from the terminal small intestine (ileum) of male New Zealand rabbits
Sequence (Q28727 whole entry): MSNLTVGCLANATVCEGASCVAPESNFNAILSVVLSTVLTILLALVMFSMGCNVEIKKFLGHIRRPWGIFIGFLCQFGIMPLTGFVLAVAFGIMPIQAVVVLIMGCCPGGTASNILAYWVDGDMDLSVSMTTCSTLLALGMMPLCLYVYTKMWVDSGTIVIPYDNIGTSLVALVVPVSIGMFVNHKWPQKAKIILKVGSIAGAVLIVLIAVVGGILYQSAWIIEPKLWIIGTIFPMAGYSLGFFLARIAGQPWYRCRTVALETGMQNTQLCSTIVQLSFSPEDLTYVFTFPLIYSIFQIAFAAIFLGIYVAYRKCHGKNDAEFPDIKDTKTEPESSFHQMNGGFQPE
Assay: Inhibition of Na^+ -dependent [^3 H]taurocholate absorption into brush-border membrane vesicles of the ileum
Type: biochemical, rabbit
Settings: [^3 H]taurocholate absorption, rabbit ileum brush-border membrane vesicles; taurocholate 50 μM, pH 7.4, customarily 1 min; read-out: IC50
ASSAY_METRIC: IC50 (µM)
Answers are plain numbers, in µM.

Previously resolved entries follow.
Entry C[C@H](CCC(=O)NCCO[C@H]1CC[C@@]2(C)[C@@H](C1)C[C@@H](O)[C@@H]1[C@@H]2C[C@H](O)[C@]2(C)[C@@H]([C@H](C)CCC(=O)O)CC[C@@H]12)[C@H]1CC[C@H]2[C@@H]3[C@H](O)C[C@@H]4C[C@H](OCc5ccccc5)CC[C@]4(C)[C@H]3C[C@H](O)[C@]12C [Example 369] has what IC50?
55

Entry C[C@H](CCC(=O)NCCS(=O)(=O)O)[C@H]1CC[C@H]2[C@@H]3[C@H](O)C[C@@H]4C[C@@H](OCCNC(=O)CCC(=O)NCCCNC(=O)CC[C@@H](C)[C@H]5CC[C@H]6[C@@H]7[C@H](O)C[C@@H]8C[C@H](OC(c9ccccc9)c9ccccc9)CC[C@]8(C)[C@H]7C[C@H](O)[C@]56C)CC[C@]4(C)[C@H]3C[C@H](O)[C@]12C [Example 527] has what IC50?
20

Turning to the following compound.
Entry C[C@H](CCC(=O)O)[C@H]1CC[C@H]2[C@@H]3[C@H](O)C[C@@H]4C[C@@H](OCCNC(=O)CCC(=O)NCCCNC(=O)CC[C@@H](C)[C@H]5CC[C@H]6[C@@H]7[C@H](O)C[C@@H]8C[C@H](OC(c9ccccc9)c9ccccc9)CC[C@]8(C)[C@H]7C[C@H](O)[C@]56C)CC[C@]4(C)[C@H]3C[C@H](O)[C@]12C [Example 170] has what IC50?
25

====

Target: Na^+ -dependent bile acid transport system (Oryctolagus cuniculus, UniProt Q28727)
Construct: Preparation of brush-border membrane vesicles from the ileum of rabbits; from tissue; host or cells: brush-border membrane vesicles from the terminal small intestine (ileum) of male New Zealand rabbits
Experiment: Inhibition of Na^+ -dependent [^3 H]taurocholate absorption into brush-border membrane vesicles of the ileum
Assay type: biochemical, rabbit
Settings: Na^+ -dependent transport component (difference between absorption in Na-T-B and K-T-B); taurocholate 50 μM, pH 7.4, customarily 1 min; read-out: IC50 Na
ASSAY_METRIC: pIC50
One number for each entry, as −log10 of the molar value.

Below are some compounds; for each one, tell me its pIC50.
1. C[C@H](CCC(=O)O)[C@H]1CC[C@H]2[C@@H]3[C@H](O)C[C@@H]4C[C@@H](OCCNC(=O)CCC(=O)NCCCNC(=O)CC[C@@H](C)[C@H]5CC[C@H]6[C@@H]7[C@H](O)C[C@@H]8C[C@H](OCc9ccccc9)CC[C@]8(C)[C@H]7C[C@H](O)[C@]56C)CC[C@]4(C)[C@H]3CC[C@]12C [Example 191]
2. COC(=O)CC[C@@H](C)[C@H]1CC[C@H]2[C@@H]3[C@H](O)C[C@@H]4C[C@@H](OCCNC(=O)CCC(=O)NCCO[C@H]5CC[C@@]6(C)[C@@H](C5)C[C@@H](O)[C@@H]5[C@@H]6C[C@H](O)[C@]6(C)[C@@H]([C@H](C)CCC(=O)OC)CC[C@@H]56)CC[C@]4(C)[C@H]3C[C@H](O)[C@]12C [Example 531]
3. C[C@H](CCC(=O)NCCO[C@H]1CC[C@@]2(C)[C@@H](C1)C[C@@H](O)[C@@H]1[C@@H]2C[C@H](O)[C@]2(C)[C@@H]([C@H](C)CCC(=O)O)CC[C@@H]12)[C@H]1CC[C@H]2[C@@H]3[C@H](O)C[C@@H]4C[C@H](O)CC[C@]4(C)[C@H]3C[C@H](O)[C@]12C [Example 368]
4. C[C@H](CCC(=O)O)[C@H]1CC[C@H]2[C@@H]3[C@H](O)C[C@@H]4C[C@@H](OCCNC(=O)CCC(=O)NCCO[C@H]5CC[C@@]6(C)[C@@H](C5)C[C@@H](O)[C@@H]5[C@@H]6C[C@H](O)[C@]6(C)[C@@H]([C@H](C)CCC(=O)O)CC[C@@H]56)CC[C@]4(C)[C@H]3C[C@H](O)[C@]12C [Example 532]
5. C[C@H](CCC(=O)O)[C@H]1CC[C@H]2[C@@H]3[C@H](O)C[C@@H]4C[C@@H](OCCNC(=O)CCC(=O)NCCCNC(=O)CC[C@@H](C)[C@H]5CC[C@H]6[C@@H]7[C@H](O)C[C@@H]8C[C@H](OC(c9ccccc9)c9ccccc9)CC[C@]8(C)[C@H]7C[C@H](O)[C@]56C)CC[C@]4(C)[C@H]3C[C@H](O)[C@]12C [Example 170]

4.54
4.74
4.74
5.00
4.85

Below are some compounds; for each one, tell me its pIC50.
1. C[C@H](CCC(=O)NCC(=O)O)[C@H]1CC[C@H]2[C@@H]3[C@H](O)C[C@@H]4C[C@@H](OCCNC(=O)CCC(=O)NCCCNC(=O)CC[C@@H](C)[C@H]5CC[C@H]6[C@@H]7[C@H](O)C[C@@H]8C[C@H](OC(c9ccccc9)c9ccccc9)CC[C@]8(C)[C@H]7C[C@H](O)[C@]56C)CC[C@]4(C)[C@H]3C[C@H](O)[C@]12C [Example 528]
2. C[C@H](CCC(=O)NCCO[C@H]1CC[C@@]2(C)[C@@H](C1)C[C@@H](O)[C@@H]1[C@@H]2C[C@H](O)[C@]2(C)[C@@H]([C@H](C)CCC(=O)O)CC[C@@H]12)[C@H]1CC[C@H]2[C@@H]3[C@H](O)C[C@@H]4C[C@H](OCc5ccccc5)CC[C@]4(C)[C@H]3C[C@H](O)[C@]12C [Example 369]
3. C[C@H](CCC(=O)NCCS(=O)(=O)O)[C@H]1CC[C@H]2[C@@H]3[C@H](O)C[C@@H]4C[C@@H](OCCNC(=O)CCC(=O)NCCCNC(=O)CC[C@@H](C)[C@H]5CC[C@H]6[C@@H]7[C@H](O)C[C@@H]8C[C@H](OC(c9ccccc9)c9ccccc9)CC[C@]8(C)[C@H]7C[C@H](O)[C@]56C)CC[C@]4(C)[C@H]3C[C@H](O)[C@]12C [Example 527]

1: 4.80; 2: 4.70; 3: 5.00
